This collection of values is drawn from ChEMBL document CHEMBL4340538.

system: HEK293; test: Inhibition of TNFalpha-induced NFkappaB activation in human HEK293 cells expressing pGL4.32 [luc2p/NF-kBRE/Hygro] assessed as NFkappaB activity by measuring relative light units at 3 uM incubated for 2 hrs followed by TNFalpha addition and measured after 5 hrs by luciferase reporter gene assay; format: cell-based
Assign Activity to each entry below.
Record the result as a number with its unit.

IN: For the molecule shown here, "C=C1C(=O)O[C@@H]2[C@H]3C(=C)[C@@H](O)C[C@H]3C(=C)C[C@H](O)[C@@H]12" , give the reported Activity.
OUT: 96.4 RLU

IN: Quick one: "C=C1C(=O)O[C@@H]2[C@H]3C(=C)[C@@H](OCOC)C[C@H]3C(=C)C[C@H](O)[C@@H]12"
OUT: 100 RLU

IN: Please answer likewise for C=C1C(=O)O[C@@H]2[C@H]3C(=C)[C@@H](O)C[C@H]3C(=C)C[C@H](OC(=O)C(C)CO)[C@@H]12 (stereo not given in full)
OUT: 137 RLU

IN: Another molecule to check: "C=C(COC(C)=O)C(=O)O[C@H]1CC(=C)[C@@H]2C[C@H](OC(C)=O)C(=C)[C@@H]2[C@H]2OC(=O)C(=C)[C@@H]21"
OUT: 93.5 RLU

IN: Also "C=C(COC)C(=O)O[C@H]1CC(=C)[C@@H]2C[C@H](O)C(=C)[C@@H]2[C@H]2OC(=O)C(=C)[C@@H]21" , if possible.
OUT: 137 RLU

IN: Same read-out for C=C1[C@@H]2[C@H]3OC(=O)C(C)[C@@H]3[C@@H](OC(=O)C(C)CO)CC(=C)[C@@H]2C[C@@H]1O (stereo not given in full) ?
OUT: 137 RLU

IN: What do you get for "C=C(CO)C(=O)O[C@H]1CC(=C)[C@@H]2C[C@H](O)C(=C)[C@@H]2[C@H]2OC(=O)C(=C)[C@@H]21" ?
OUT: 5.67 RLU

IN: Here is the next molecule: "C=C(COCOC)C(=O)O[C@H]1CC(=C)[C@@H]2C[C@H](OCOC)C(=C)[C@@H]2[C@H]2OC(=O)C(=C)[C@@H]21"
OUT: 8.97 RLU

IN: What do you have for "C=C(COC(C)=O)C(=O)O[C@H]1CC(=C)[C@@H]2C[C@H](O)C(=C)[C@@H]2[C@H]2OC(=O)C(=C)[C@@H]21" ?
OUT: 33.8 RLU

IN: Further, for "C=C(COC)C(=O)O[C@H]1CC(=C)[C@@H]2C[C@H](OC)C(=C)[C@@H]2[C@H]2OC(=O)C(=C)[C@@H]21" ?
OUT: 134 RLU

###

test system: HEK293; test: Cytotoxicity against human HEK293 cells at 3 uM after 7 hrs by WST-8 assay; assay type: cell-based; conditions: hek293, 7 h
Quantity measured: Activity

INSERT INTO measurements (chem_smiles, result) VALUES
  ('C=C(COC)C(=O)O[C@H]1CC(=C)[C@@H]2C[C@H](OC)C(=C)[C@@H]2[C@H]2OC(=O)C(=C)[C@@H]21', 'Non-Toxic'),
  ('C=C(COCOC)C(=O)O[C@H]1CC(=C)[C@@H]2C[C@H](OCOC)C(=C)[C@@H]2[C@H]2OC(=O)C(=C)[C@@H]21', 'Non-Toxic'),
  ('C=C(COC)C(=O)O[C@H]1CC(=C)[C@@H]2C[C@H](O)C(=C)[C@@H]2[C@H]2OC(=O)C(=C)[C@@H]21', 'Non-Toxic');
